- target under test: T1, RSV F subtype B, furin-cleaved ectodomain stabilized in the postfusion conformation (F ΔFP) (Respiratory syncytial virus subtype B)
- T1 construct: extracellular domain; Trimeric soluble antigen; also called Postfusion subtype B
- test protocol: BLI, IgG on AHQ sensor, 100 nM antigen
reported endpoint: Kd (nM)

{"binder": "ADI-18909 (antibody, V domains shown, full-length IgG from yeast; also called Antibody Number 264; Ab # 264) VH: QVQLQESGPGLVKPSQTLSLTCTVSGRFLNSGDYYWSWIRQSPGKGLEWLGYIHHSGNTYYNPSLKSRLTISLDMSKNQFSLKLSSVTAADTAVYYCARDLGKPLWDGHYYYGVDVWGQGTTVTVSS VL: DIVMTQSPGTLSLSPGERATLSCRTSQNVNSNYLAWYQHKPGQAPRLLIYGASSRVTGIPDRFSGSGSGTDFTLTITRVESEDFAVYYCQVYSSSPPITFGQGTKVEIK", "reported endpoint": "Kd", "unit abbrev": "nM", "reported result": 0.225}
{"binder": "ADI-18887 (antibody, V domains shown, full-length IgG from yeast; also called Antibody Number 242; Ab # 242) VH: QVQLVQSGAEVKRPGSSVKVSCKASGGTFSSYALSWVRQAPGQGLEWIGGIIPMHRVTNYAQKFRGRVTISADTSTSTAYLEVNSLRVEDTAMYYCARVFFGTCGGASCFPSDLWGQGTLVTVSS VL: EIVLTQSPSFVSASVGDGVTITCRASQAISSYLAWYQQKPGQAPKLLIYAASTLQGGVPSRFSGSGSGTHFTLTISSLQPEDFATYYCQQLHSDFQTFGPGTKVEIK", "reported endpoint": "Kd", "unit abbrev": "nM", "reported result": 0.549}
{"binder": "ADI-18955 (antibody, V domains shown, full-length IgG from yeast; also called Antibody Number 306; Ab # 306) VH: EVQLVESGGGVVQSGRSLRLSCAASGFIFSDNGMHWVRQAPGKGLEWVAGIFYDGSNKQYADSVKGRFTISRDNSKNTLYLQMKSLRAEDTAVYYCARAPYDIWSGYCLDYWGQGTLVTVSS VL: DIQVTQSPATLSMSPGERATLSCRASQSVNNNLAWYQQRPGQAPRLLIYGASTRATGIPARFSGSGSETEFTLTISSLQSEDFAVYHCQQYSIWPQTFGQGTKVEIK", "reported endpoint": "Kd", "unit abbrev": "nM", "reported result": 0.25}
{"binder": "ADI-18924 (antibody, V domains shown, full-length IgG from yeast) VH: QVQLVQSGAEVKKPGESLKISCQGSGYSFSSFWIVWVRQMPGKGLEWMGSIYPGDSDTRYTPSFQGQVTISADKSTSTAYLQWNSLKPSDTAMYYCARCSLSCDYYGVNLWGQGTTVTVSS VL: QSVVTQPPSVSGAPGQRVTISCSGSSSNIGARSDVHWYQQLPGKAPKLLIYGNTNRPLGVPDRFSGSTSGTSASLAISGLQAEDEGYYYCQSYDSSLSGFYVFGTGTKLTVL", "reported endpoint": "Kd", "unit abbrev": "nM", "reported result": 0.321}
{"binder": "ADI-18918 (antibody, V domains shown, full-length IgG from yeast) VH: QVQLVQSGAEVKKPGESLKISCKGSGYSFSSFWIGWVRQMPGKGLEWMGIIYPGDSDTRYSPSFQGQVTMSADTSINTAYLQWNSVKASDTAIYYCARLPVGSYYYFNLWGRGTLVTVSS VL: EIVMTQSPATLSVSPGESATLFCRASQSISSDLAWYQQRPGQAPRLLIYDASTRATGVPARFSATGSEAEFTLTISGLQSEDFAVYYCQQYNNWLSWTFGQGTKLEIK", "reported endpoint": "Kd", "unit abbrev": "nM", "reported result": 0.409}
{"binder": "ADI-18896 (antibody, V domains shown, full-length IgG from yeast) VH: EVQLLESGGGVVQSGRSLRLSCAASGFTFSDNGMHWVRQAPGKGLEWVAGIFYDGSNKQYADSVKGRFTISRDNSKSTLYLQMNSLRAEDTAVYYCARAPYDIWSGYCLDYWGQGTLVTVSS VL: DIQMTQTPATLSMSPGERATLSCRASQSVNNNLAWYQQRPGQAPRLLIYGASTRATGIPARFSGSGSETEFTLTISSLQSEDFAVYHCQQYSIWPQTFGQGTKLEIK", "reported endpoint": "Kd", "unit abbrev": "nM", "reported result": 0.27}
{"binder": "ADI-18947 (antibody, V domains shown, full-length IgG from yeast) VH: QVQLVQSGGGVVQSGRSLRLSCAASGFTFSDNGMHWVRQAPGKGLEWVAGIFHDGSNKQYAESVKGRFIISRDNSKNTLYLQMNSLRAEDTALYFCARAPYDIWSGYCLDYWGQGTLVTVSS VL: DIRMTQSPATLSLSPGESATLSCRASQSVINNLAWYQQRPGQAPRLLIYGASTRATGIPARFSGSGSETEFTLTISSLQSEDFAVYHCQQYSIWPQTFGQGTKLEIK", "reported endpoint": "Kd", "unit abbrev": "nM", "reported result": 0.282}
{"binder": "ADI-18950 (antibody, V domains shown, full-length IgG from yeast) VH: EVQLVESGPRLVRPSETLSLTCTVSGGFIKTSSYYWGWIRQPPGKGLEWIGSIYYAGTTYYNPSLQSRVTMSVDTSNNQFSLKLNSVTAADTAVYYCATAWTFDHWGQGTLVTVSS VL: EIVLTQSPATLSLSPGERATLSCRASQSLSNYLAWYQQKPGQAPRLLIYDASNRATGIPARFSGSGSGTDFTLTISSLEPEDFAVYYCQLRGHWPPTITFGQGTRLEIK", "reported endpoint": "Kd", "unit abbrev": "nM", "reported result": 0.385}
{"binder": "ADI-18876 (antibody, V domains shown, full-length IgG from yeast) VH: QVQLQESGPGLVKPSQTLSLTCTVSGPSISSGDYYWTWIRQPPGKGLEWIGYIYNSGSTDYNPSLKSRITMSLDRSKNQFSLNLSSVTAADTAVYFCARDVGTLVLPTVAYYYGMDVWGQGTTVTVSS VL: EIVLTQSPGTLSLSPGERATLSCRASESISSSYLAWYQQKPGQAPRLLIYDASSRATGIPDRFSGSGSGTDFTLTISSLEPEDFAVYYCQQYGSSPLVTFGPGTKVDIK", "reported endpoint": "Kd", "unit abbrev": "nM", "reported result": 0.179}
{"binder": "ADI-18895 (antibody, V domains shown, full-length IgG from yeast; also called Antibody Number 250; Ab # 250) VH: QVQLVQSGPEVKKTRESLKIYCKGSGYSFISHWIGWVRQKPGKGLEWMGIIYPGDSDTRYSPSFQGQVAISADKSINTAYLQWSSLKSSDTAIYYCASVMLRGIMWGQGTLVTVSS VL: DIRLTQSPSSLSASVGDRVTITCQASQDISKYLNWYQQKPGKAPKLLIYDASNLETGVPSRFSGSGSGTDFTFTISSLQPEDIATYYCQPYDNLPPPLTFGGGTKLEIK", "reported endpoint": "Kd", "unit abbrev": "nM", "reported result": 0.486}
